Target: Dihydrofolate reductase (Mus musculus) (UniProt P00375)
Sequence (P00375 whole entry): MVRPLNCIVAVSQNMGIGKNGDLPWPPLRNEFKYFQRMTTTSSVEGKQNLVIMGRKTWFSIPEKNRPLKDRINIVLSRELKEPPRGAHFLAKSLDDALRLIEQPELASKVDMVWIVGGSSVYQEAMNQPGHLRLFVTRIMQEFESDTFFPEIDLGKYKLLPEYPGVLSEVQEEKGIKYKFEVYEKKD
Conditions: L1210
Description: Compound was tested for inhibition of the enzyme DiHydroFolate Reductase (DHFR) from murine L1210 leukemia cells
I'd appreciate it if you could supply IC50/[E] values for the items below.
Answers are plain numbers.

Here's what some known entries look like.
Exercise: Report the value of IC50/[E] obtained on Dihydrofolate reductase (Mus musculus) (UniProt P00375) for CC(C)(C)NC(=O)CCC(NC(=O)c1ccc(NCc2cnc3nc(N)nc(N)c3n2)cc1)C(=O)O (centres undefined) .
Solution: 1.1

Exercise: Report the value of IC50/[E] obtained on Dihydrofolate reductase (Mus musculus) (UniProt P00375) for Nc1nc(N)c2nc(CNc3ccc(C(=O)NC(CCC(=O)Nc4ccc5c(c4)OCO5)C(=O)O)cc3)cnc2n1 (centres undefined) .
Solution: 1.1

Exercise: Report the value of IC50/[E] obtained on Dihydrofolate reductase (Mus musculus) (UniProt P00375) for Nc1nc(N)c2nc(CNc3ccc(C(=O)NC(CCC(=O)Nc4ccccc4)C(=O)O)cc3)cnc2n1 (centres undefined) .
Solution: 1.5

Could you now look at the following compound, please?
Exercise: Report the value of IC50/[E] obtained on Dihydrofolate reductase (Mus musculus) (UniProt P00375) for CN(Cc1cnc2nc(N)nc(N)c2n1)c1ccc(C(=O)NC(CCC(=O)Nc2ccc3c(c2)OCO3)C(=O)O)cc1 (centres undefined) .
Solution: 1.1

* * *

I'd appreciate it if you could supply pIC50 values for the items below.
Species: Homo sapiens
Assay: Compound was tested for its inhibitory concentration against human leukemic lymphoblasts (CEM Cells)
Assay type: functional
Conditions: CCRF-CEM
Give bare numbers, as −log10 of the molar value.

Exercise: Using known records, supply pIC50 for Nc1nc(N)c2nc(CNc3ccc(C(=O)N[C@@H](CCC(=O)O)C(=O)O)cc3)cnc2n1
Solution: 9.00

Could you now look at the following molecule, please?
Exercise: Using known records, supply pIC50 for CN(Cc1cnc2nc(N)nc(N)c2n1)c1ccc(C(=O)N[C@@H](CCC(=O)O)C(=O)O)cc1 [METHOTREXATE]
Solution: 7.49

* * *

System: L1210
Assay: Compound was tested for its inhibitory concentration to inhibit the growth of wild type L1210 cells and a subline ( L1210 / R81 ).
Type: functional, cell-based
Details: Mus musculus
I'd appreciate it if you could supply IC50 values for the items below.
Answers are plain numbers, in µM.

Here's what some known entries look like.
Exercise: Using known records, supply IC50 for Nc1nc(N)c2nc(CNc3ccc(C(=O)NC(CCC(=O)Nc4ccc(O)c(O)c4)C(=O)O)cc3)cnc2n1 (stereo not drawn)
Solution: 23

Exercise: Using known records, supply IC50 for Nc1nc(N)c2nc(CNc3ccc(C(=O)NC(CCC(=O)NCc4ccccc4)C(=O)O)cc3)cnc2n1 (stereo not drawn)
Solution: 17

Could you now look at the following compound, please?
Exercise: Using known records, supply IC50 for CN(Cc1cnc2nc(N)nc(N)c2n1)c1ccc(C(=O)NC(CCC(=O)Nc2ccc(O)c(O)c2)C(=O)O)cc1 (stereo not drawn)
Solution: 38

Origin of the recorded values: ChEMBL document CHEMBL1123432
